Species on record: Rattus norvegicus
measurement protocol: Open TG-GATES - Regimen: Daily Repeat
Type: toxicity, organism-based, Sprague-Dawley
Set-up: regimen Daily Repeat, gender Male, age 6 weeks
reported conditions: in vivo, po, 100 mg/kg, […], tissue Blood, route gavage, dose level Low, time 14 day
Exercise: state measured MCV for each of the compounds provided.
Give bare numbers, in fL.

| compound | value unit | MCV |
| --- | --- | --- |
| CC(S)C(=O)NCC(=O)O (centres undefined) | fL | 59.9 |
| O=C(O)c1ccccc1Nc1ccccc1 | fL | 60.3 |
| CCCCNC(=O)NS(=O)(=O)c1ccc(C)cc1 [TOLBUTAMIDE] | fL | 60 |

Problem: What measured MCV goes with `CC(=O)[C@@]1(O)CC[C@H]2[C@@H]3C=C(Cl)C4=CC(=O)CC[C@]4(C)[C@H]3CC[C@@]21C` ?
Solution: 57.6
